// reported half-life for each item listed
# assayProtocol: Half life in Sprague-Dawley rat at 1 mg/kg, iv administered as single dose by LC-MS/MS analysis
# Format: ADME, organism-based
# measurementConditions: in vivo

sampleSmiles	half-life
O=C(O)C[C@@H](CC1CCCC1)C(=O)N(c1nc(-c2ccccc2-c2ccc(-n3cccn3)nc2)cs1)C1CC1	2.58 h
CC(C)[C@H](C(=O)Nc1nccs1)c1ccc(Cl)cc1	3.67 h
O=C(O)C[C@@H](Cc1ccccc1)C(=O)N(c1nc(-c2cc(Cl)ccc2Cl)cs1)C1CC1	9.83 h
CN(C(=O)[C@@H](CC(=O)O)Cc1ccccc1)c1nc(-c2ccccc2Cl)cs1	8.03 h
CC(C)C[C@H](CC(=O)O)C(=O)N(c1nc(-c2ccccc2-c2ccc(-n3cccn3)nc2)cs1)C1CC1	4.67 h
COc1ccc(-c2ccccc2-c2csc(N(C(=O)[C@@H](CC(=O)O)CC3CCCC3)C3CC3)n2)cn1	4 h
COc1ccc(-c2ccc(Cl)cc2-c2csc(N(C(=O)[C@@H](CC(=O)O)Cc3ccco3)C3CC3)n2)cn1	9.65 h
COc1ccc(-c2ccccc2-c2csc(N(C(=O)[C@@H](CC(=O)O)CC(C)C)C3CC3)n2)cn1	7.18 h
O=C(O)C[C@@H](Cc1ccccc1)C(=O)N(c1nc(-c2ccccc2Cl)cs1)C1CC1	5.32 h
